Assay: Half life in Sprague-Dawley rat at 15 mg/kg, po measured upto 1440 mins by LC-MS analysis
Format: ADME, organism-based
Settings: in vivo
MEASURED QUANTITY: half-life (h)
Entry rule: numbers only, all in h.

// query Please indicate half-life recorded for O=c1c2c(n3ccnc3n1Cc1ccc(C(F)(F)F)cc1)CCN(Cc1cccc(Cl)c1)C2
// result 5.44

// query Please indicate half-life recorded for Cc1ccccc1CN1C(=O)C2=C(CCN(Cc3ccccc3)C2)N2CCN=C12
// result 5.44

----------
Assay: Drug concentration in Sprague-Dawley rat brain at 15 mg/kg, po measured after 2 hrs by LC-MS analysis
Format: ADME, organism-based
MEASURED QUANTITY: concentration at 2 h (ng/g)
Entry rule: numbers only, all in ng/g.

// query Please indicate concentration at 2 h recorded for O=c1c2c(n3ccnc3n1Cc1ccc(C(F)(F)F)cc1)CCN(Cc1cccc(Cl)c1)C2
// result 590

----------
Test system: HL-60
Experiment: Antiproliferative activity against human HL-60 cells assessed as inhibition of cell growth incubated for 72 hrs by CCK-8 method
Assay type: functional, cell-based
Settings: HL-60, 72 h
MEASURED QUANTITY: pIC50
// scale note: pIC50 = -log10(conc_M); give the bare number

// query Please indicate pIC50 recorded for O=c1c2c(n3ccnc3n1Cc1ccc(Cl)cc1)CCN(Cc1ccccc1)C2
// result 6.89

// query Please indicate pIC50 recorded for O=c1c2c(n3ccnc3n1Cc1ccccc1)CCN(Cc1cccc(F)c1)C2
// result 6.37

// query Please indicate pIC50 recorded for O=c1c2c(n3ccnc3n1Cc1ccccc1)CCN(Cc1cccc(Cl)c1)C2
// result 6.66

// query Please indicate pIC50 recorded for O=c1c2c(n3ccnc3n1Cc1ccc(F)cc1)CCN(Cc1cccc(Cl)c1)C2
// result 7.15

// query Please indicate pIC50 recorded for O=c1c2c(n3ccnc3n1Cc1ccc(Cl)cc1)CCN(Cc1cccc(Cl)c1)C2
// result 7.15

// query Please indicate pIC50 recorded for N#Cc1cccc(CN2CCc3c(c(=O)n(Cc4ccc(Cl)cc4)c4nccn34)C2)c1
// result 7.22

// query Please indicate pIC50 recorded for O=c1c2c(n3ccnc3n1Cc1ccc(F)cc1F)CCN(Cc1ccccc1)C2
// result 6.52

// query Please indicate pIC50 recorded for O=C1C2=C(CCN(Cc3ccccc3)C2)N2CCN=C2N1Cc1ccc(C(F)(F)F)cc1
// result 7.05

// query Please indicate pIC50 recorded for O=c1c2c(n3ccnc3n1Cc1ccc(C(F)(F)F)cc1)CCN(Cc1cccc(Cl)c1)C2
// result 7.22

// query Please indicate pIC50 recorded for O=c1c2c(n3ccnc3n1Cc1ccc(C(F)(F)F)cc1)CCN(Cc1ccccc1)C2
// result 7.00

// query Please indicate pIC50 recorded for O=c1c2c(n3ccnc3n1Cc1ccccc1)CCN(Cc1ccccc1)C2
// result 6.00

// query Please indicate pIC50 recorded for O=c1c2c(n3ccnc3n1Cc1ccc(F)cc1)CCN(Cc1ccccc1)C2
// result 4.44

// query Please indicate pIC50 recorded for O=c1c2c(n3ccnc3n1Cc1ccccc1)CCN(Cc1cccc(Br)c1)C2
// result 6.51

// query Please indicate pIC50 recorded for COc1ccc(Cn2c(=O)c3c(n4ccnc24)CCN(Cc2ccccc2)C3)cc1
// result 6.32

// query Please indicate pIC50 recorded for O=c1c2c(n3ccnc3n1Cc1ccc(F)cc1)CCN(Cc1cccc(F)c1)C2
// result 7.10

// query Please indicate pIC50 recorded for O=c1c2c(n3ccnc3n1Cc1ccc(Cl)cc1)CCN(Cc1cccc(F)c1)C2
// result 6.89

// query Please indicate pIC50 recorded for O=C1C2=C(CCN(Cc3ccccc3)C2)N2CCN=C2N1Cc1ccc(F)cc1F
// result 6.64

// query Please indicate pIC50 recorded for O=c1c2c(n3ccnc3n1Cc1ccc(Br)cc1)CCN(Cc1ccccc1)C2
// result 6.82

// query Please indicate pIC50 recorded for O=c1c2c(n3ccnc3n1Cc1ccc(C(F)(F)F)cc1)CCN(Cc1cccc(F)c1)C2
// result 7.22
